For each entry below, report its IC50 value.
- experimental_target: G12V-mutant human KRAS (amino acid residues 1-188) (Homo sapiens, UniProt P01116, G12V)
- Construct: G12V-mutant human KRAS (amino acid residues 1-188) with FLAG tag was purified from E. coli; made in house; host or cells: E. coli
- protocol_summary: KRAS Binding Competition Assay (AlphaScreen; biotinylated KRpep-2d analogue), G12V
- run_parameters: geometric mean, read-out: KRAS GMean IC50 (uM) MUTATION: G12V

Look at each compound and report its IC50.
1. CN1[C@@H]2CC[C@H]1CN(c1nc(OCC34CCCN3CCC4)nc3cc(-c4cc(O)cc5ccccc45)ccc13)C2
2. Cc1n[nH]c2cccc(-c3ccc4c(N5C[C@H]6CC[C@@H](C5)N6)nc(OC[C@@H]5CCCN5C)nc4c3)c12
3. O=C(O)CCC(=O)N1[C@@H]2CC[C@H]1CN(c1nc(OCC34CCCN3CCC4)nc3cc(-c4cc(O)cc5ccccc45)ccc13)C2
4. COc1ccc2[nH]cc(-c3ccc4c(N5C[C@H]6CC[C@@H](C5)N6)nc(OC[C@@H]5CCCN5C)nc4c3F)c2c1
5. CN1CCC[C@H]1COc1nc(N2C[C@H]3CC[C@@H](C2)N3)c2cc(C(=O)O)c(-c3cc(O)cc4ccccc34)c(F)c2n1
6. CN1CCC[C@H]1COc1nc(N2C[C@H]3CC[C@@H](C2)N3)c2ccc(-c3cc(N)cc4ccccc34)cc2n1
7. Oc1cc(-c2ccc3c(N4CC5CCC(C4)N5)nc(OCC4CCC(O)C4)nc3c2F)c2ccccc2c1 (stereo not shown)

Outgoing:
1. 10 to 100 µM
2. 100 to 1000 µM
3. 0.0001 to 10 µM
4. 100 to 1000 µM
5. 0.0001 to 10 µM
6. 10 to 100 µM
7. 10 to 100 µM

====

- experimental_target: G12D-mutant human KRAS (amino acid residues 1-188) (Homo sapiens, UniProt P01116, G12D)
- Construct: G12D or G12C-mutant human KRAS (amino acid residues 1-188) with FLAG tag; made in house; host or cells: E. coli
- protocol_summary: KRAS Binding Disruption Assay (AlphaScreen; biotinylated KRpep-2d analogue or RAF1-RBD), G12D
- run_parameters: KRAS G12D; geometric mean; read-out: KRAS GMean IC50 (uM) MUTATION: G12D
metric: IC50

Parameters: items (list). Returns: IC50 for each item.
1. CN1CCC[C@H]1COc1nc(N2C[C@H]3CC[C@@H](C2)N3)c2cc(Cl)c(-c3cc(O)cc4ccccc34)c(OCC(F)(F)F)c2n1 [P-0033]
2. C#Cc1cccc2cccc(-c3ccc4c(N5C[C@H]6CC[C@@H](C5)N6)nc(OCC56CCCN5CCC6)nc4c3F)c12 [P-0521]
3. Cc1cccc2c1N(c1ccc3c(N4C[C@H]5CC[C@@H](C4)N5)nc(OCC45CCCN4CCC5)nc3c1F)CC(O)C2 (some centres unmarked) [P-0454]

Outgoing:
1. 0.0001 to 10 µM
2. 0.0001 to 10 µM
3. 0.0001 to 10 µM

Please supply IC50 for each of the following items, keeping them in order.
1. Fc1cc2c(N3C[C@H]4CC[C@@H](C3)N4)nc(OCC34CCCN3CCC4)nc2c(F)c1-c1c(Cl)cnc2[nH]ccc12 [P-0645]
2. Cc1c(-c2cc(O)cc3ccccc23)ccc2c(N3C[C@H]4CC[C@@H](C3)N4)nc(OCC34CCCN3CCC4)nc12 [P-0015]
3. OCC1(CNc2nc(N3C[C@H]4CC[C@@H](C3)N4)c3ccc(-c4cc(O)cc5ccccc45)c(F)c3n2)CC(F)(F)C1 [P-0579]
4. CN(C)CCN(C)c1nc(N2C[C@H]3CC[C@@H](C2)N3)c2ccc(-c3cc(O)cc4ccccc34)cc2n1 [P-0057]
5. OCCc1nc(N2C[C@H]3CC[C@@H](C2)N3)c2ccc(-c3cc(O)cc4ccccc34)c(F)c2n1 [P-0431]

Outgoing:
1. 0.0001 to 10 µM
2. 0.0001 to 10 µM
3. 0.0001 to 10 µM
4. 10 to 100 µM
5. 0.0001 to 10 µM

Please report IC50 for every entry that follows.
1. Cc1n[nH]c(C)c1-c1ccc2c(N3C[C@H]4CC[C@@H](C3)N4)nc(OC[C@@H]3CCCN3C)nc2c1 [P-0176]
2. Oc1cc(-c2ccc3c(N4C[C@H]5CC[C@@H](C4)N5)nc(OCC4CCC4)nc3c2F)c2ccccc2c1 [P-0750]
3. CC(CN)Oc1nc(N2C[C@H]3CC[C@@H](C2)N3)c2ccc(-c3cc(O)cc4ccccc34)cc2n1 (some centres unmarked) [P-0062]
4. CNC1CN(c2nc(N3C[C@H]4CC[C@@H](C3)N4)c3ccc(-c4cc(O)cc5ccccc45)c(F)c3n2)C1 [P-0601]
5. CN1CCC[C@H]1COc1nc(N2CC3COCC(C2)N3)c2cc(Cl)c(-c3cc(O)cc4ccccc34)c(F)c2n1 [P-0357]
6. COC(=N)CC(=O)N1[C@@H]2CC[C@H]1CN(c1nc(OC[C@@H]3CCCN3C)nc3c(F)c(-c4cc(O)cc5ccccc45)c(Cl)cc13)C2 [P-0450]

Outgoing:
100 to 1000 µM
0.0001 to 10 µM
0.0001 to 10 µM
0.0001 to 10 µM
0.0001 to 10 µM
10 to 100 µM
